Experiment: Fluorescence spectrum in TE buffer of dyes selected from live cell imaging
Type: physicochemical
Settings: dye 10 μM in TE buffer
Attribute: SPECTRUM EX

[
  {
    "molecule": "COc1ccc2c(ccc(/C=C/c3cc(I)ccc3O)[n+]2C)c1 [Dye F120]",
    "unitsLabel": "nm",
    "SPECTRUM EX": 450
  },
  {
    "molecule": "C[n+]1c(C=Cc2cc(C(C)(C)C)ccc2O)ccc2ccccc21 [Dye E73]",
    "unitsLabel": "nm",
    "SPECTRUM EX": 450
  },
  {
    "molecule": "COc1ccc2c(ccc(C=Cc3ccc(-c4cccs4)s3)[n+]2C)c1 [Dye F119]",
    "unitsLabel": "nm",
    "SPECTRUM EX": 500
  },
  {
    "molecule": "COc1ccc2c(ccc(C=Cc3ccc4c(c3)OCO4)[n+]2C)c1 [Dye F43]",
    "unitsLabel": "nm",
    "SPECTRUM EX": 450
  },
  {
    "molecule": "COc1ccc(-c2ccc(/C=C/c3cccc[n+]3C)o2)cc1Cl [Dye B139]",
    "unitsLabel": "nm",
    "SPECTRUM EX": 450
  }
]

* * *

Test: Fluorescent properties of free dye solution
Assay type: physicochemical
Details: TE buffer pH 7.5, dye 5 μM
Description: The fluorescence spectra data in the primary screening and selected dyes titration assay study was obtained by Gemini XS plate reader. RNA solution was prepared right before the assay experiments to avoid possible degradation and contamination. […] RNA (16S- and 23S-ribosomal from E. coli) and DNA (salmon testes) titration experiments and quantum yield/extinction coefficient determination for the three best dyes were carried out by the plate reader as well. […]
Attribute: EM (emission λmax), Buffer

[
  {
    "itemSmiles": "COc1cc(OC)c(/C=C/c2ccc3ccccc3[n+]2C)c(OC)c1",
    "EM (emission λmax), Buffer": "532 nm"
  },
  {
    "itemSmiles": "COc1ccc2c(ccc(/C=C/c3ccc(N(C)C)cc3)[n+]2C)c1",
    "EM (emission λmax), Buffer": "598 nm"
  },
  {
    "itemSmiles": "C[n+]1c(/C=C/c2c[nH]c3ccccc23)ccc2ccccc21",
    "EM (emission λmax), Buffer": "541 nm"
  },
  {
    "itemSmiles": "COc1ccc2c(ccc(/C=C/c3ccc(N(C)C)cc3[N+](=O)[O-])[n+]2C)c1",
    "EM (emission λmax), Buffer": "516 nm"
  }
]

* * *

Test system: RNA (Type VI from torula yeast)
Assay: In vitro solution assay (primary screening): fluorescent emission fold change upon binding to RNA
Details: dye 10 μM, RNA 500 μg/mL in TE buffer
Method: The fluorescence spectra data in the primary screening and selected dyes titration assay study was obtained by Gemini XS plate reader. RNA solution was prepared right before the assay experiments to avoid possible degradation and contamination. […] RNA (16S- and 23S-ribosomal from E. coli) and DNA (salmon testes) titration experiments and quantum yield/extinction coefficient determination for the three best dyes were carried out by the plate reader as well. […]
readoutLabel: Ex(nm)

[
  {
    "itemSmiles": "COc1ccc2c(ccc(C=Cc3ccc(N(C)CCO)cc3)[n+]2C)c1",
    "recordedMeasurement": 500
  },
  {
    "itemSmiles": "CCN(CC)c1ccc(C=Cc2ccc3cc(OC)ccc3[n+]2C)cc1",
    "recordedMeasurement": 500
  },
  {
    "itemSmiles": "Cn1c(/C=C/c2cc[n+](C)cc2)cc2ccccc21",
    "recordedMeasurement": 450
  },
  {
    "itemSmiles": "Cc1cccc(/C=C/c2ccc(N(C)C)cc2)[n+]1C",
    "recordedMeasurement": 500
  },
  {
    "itemSmiles": "CCN(CC)c1ccc(C=Cc2cc[n+](C)cc2)c(C#N)c1",
    "recordedMeasurement": 500
  },
  {
    "itemSmiles": "Cn1c(/C=C/c2cc[n+](C)c3ccccc23)cc2ccccc21",
    "recordedMeasurement": 500
  },
  {
    "itemSmiles": "C[n+]1c(C=Cc2ccc3c(c2)OCO3)ccc2ccccc21",
    "recordedMeasurement": 450
  },
  {
    "itemSmiles": "COc1ccc2c(ccc(C=Cc3ccc(O)c(Br)c3)[n+]2C)c1",
    "recordedMeasurement": 500
  },
  {
    "itemSmiles": "CCn1c2ccccc2c2cc(C=Cc3cc[n+](C)c4ccccc34)ccc21",
    "recordedMeasurement": 500
  },
  {
    "itemSmiles": "COc1ccc2c(ccc(/C=C/c3cc4ccccc4n3C)[n+]2C)c1",
    "recordedMeasurement": 500
  }
]
